- Assay Info: Half-life value after IV dose at a dose of 5 mg/kg in rats.
- Type: ADME, organism-based
- Set-up: dose 5 mg/kg, route intravenous
- Measurement Conditions: rat, in vivo
Attribute Measured: half-life
Please state the value followed by its unit.

Req: Quick one: half-life for O=C(N[C@@H](Cc1ccccc1)C[C@H](O)[C@H](Cc1ccccc1)NC(=O)O[C@H]1COC2OCCC21)Oc1cncs1 (stereo partly specified) ?
Resp: 41.4 min

###

Would you mind telling me the reported inhibition of each entry?
- Study Target: UniProt Q72874
- Assay Info: Tested for its inhibition against HIV protease at a concentration of 0.5 nM.
Give just the numeric value; % need not be written.

Req: Quick one: inhibition for O=C(N[C@@H](Cc1ccccc1)C[C@H](O)[C@H](Cc1ccccc1)NC(=O)OC1COC2OCCC12)Oc1cncs1 (some centres not stated) ?
Resp: 43

Req: Quick one: inhibition for O=C(N[C@@H](Cc1ccccc1)C[C@H](O)[C@H](Cc1ccccc1)NC(=O)O[C@H]1COC2OCCC21)O[C@H]1COC2OCCC21 (some centres not stated) ?
Resp: 64

Req: Quick one: inhibition for CC(C)c1nc(CN(C)C(=O)N[C@H](C(=O)N[C@@H](Cc2ccccc2)C[C@H](O)[C@H](Cc2ccccc2)NC(=O)OCc2cncs2)C(C)C)cs1 [RITONAVIR] ?
Resp: 78

Req: Quick one: inhibition for CC(C)(C)OC(=O)N[C@@H](Cc1ccccc1)C[C@H](O)[C@H](Cc1ccccc1)NC(=O)OC1COC2OCCC12 (some centres not stated) ?
Resp: 49

Req: Quick one: inhibition for CC(C)(C)OC(=O)N[C@@H](Cc1ccccc1)C[C@H](O)[C@H](Cc1ccccc1)NC(=O)O[C@H]1COC2OCCC21 (some centres not stated) ?
Resp: 63

Req: Quick one: inhibition for O=C(N[C@@H](Cc1ccccc1)[C@@H](O)C[C@H](Cc1ccccc1)NC(=O)O[C@@H]1COC2OCCC21)O[C@H]1COC2OCCC21 (some centres not stated) ?
Resp: 39

Req: Quick one: inhibition for O=C(N[C@@H](Cc1ccccc1)C[C@H](O)[C@H](Cc1ccccc1)NC(=O)OC1COC2OCCC12)OC1COC2OCCC12 (some centres not stated) ?
Resp: 53
